Values from paper PMC3235649

The following compounds are listed with their measured ΔTm at 500 µM values.
measuredTarget: GCase (Cerezyme) (Homo sapiens, UniProt P04062, R534H)
Sequence (P04062 40-536 R534H): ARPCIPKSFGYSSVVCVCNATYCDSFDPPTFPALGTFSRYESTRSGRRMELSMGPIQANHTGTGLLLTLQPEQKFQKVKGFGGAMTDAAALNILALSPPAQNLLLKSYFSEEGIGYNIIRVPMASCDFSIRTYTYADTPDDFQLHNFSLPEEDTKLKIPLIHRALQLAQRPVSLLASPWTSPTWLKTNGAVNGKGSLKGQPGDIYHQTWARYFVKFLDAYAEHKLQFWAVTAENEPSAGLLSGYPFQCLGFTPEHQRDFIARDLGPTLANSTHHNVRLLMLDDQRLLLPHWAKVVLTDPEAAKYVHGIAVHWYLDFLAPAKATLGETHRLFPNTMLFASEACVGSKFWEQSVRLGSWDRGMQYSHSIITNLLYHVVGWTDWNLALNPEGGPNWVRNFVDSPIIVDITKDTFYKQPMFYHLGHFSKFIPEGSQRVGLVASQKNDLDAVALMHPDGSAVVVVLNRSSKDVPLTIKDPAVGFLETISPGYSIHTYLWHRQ
measurementDescription: Thermal stability assay for GCase
Assay type: binding
conditionsUsed: pH 7.2, read-out: ΔTm

Cl.O[C@H]1[C@H](O)[C@@H](O)CNC[C@@H]1O	1.4 °C
OC[C@H]1CNC[C@@H](O)[C@@H]1O [IFG, isofagomine, reference compound]	16.9 °C
Cl.OCCOCCN1C[C@H](O)[C@@H](O)[C@H](O)[C@@H](O)C1	2.1 °C

Exercise: Requested read-out: ΔTm at 500 µM. Entry: Cl.OCCN1C[C@H](O)[C@@H](O)[C@H](O)[C@@H](O)C1
Solution: 1.7 °C

* * *

measuredTarget: GCase (Cerezyme) (Homo sapiens, UniProt P04062, R534H)
Sequence (P04062 40-536 R534H): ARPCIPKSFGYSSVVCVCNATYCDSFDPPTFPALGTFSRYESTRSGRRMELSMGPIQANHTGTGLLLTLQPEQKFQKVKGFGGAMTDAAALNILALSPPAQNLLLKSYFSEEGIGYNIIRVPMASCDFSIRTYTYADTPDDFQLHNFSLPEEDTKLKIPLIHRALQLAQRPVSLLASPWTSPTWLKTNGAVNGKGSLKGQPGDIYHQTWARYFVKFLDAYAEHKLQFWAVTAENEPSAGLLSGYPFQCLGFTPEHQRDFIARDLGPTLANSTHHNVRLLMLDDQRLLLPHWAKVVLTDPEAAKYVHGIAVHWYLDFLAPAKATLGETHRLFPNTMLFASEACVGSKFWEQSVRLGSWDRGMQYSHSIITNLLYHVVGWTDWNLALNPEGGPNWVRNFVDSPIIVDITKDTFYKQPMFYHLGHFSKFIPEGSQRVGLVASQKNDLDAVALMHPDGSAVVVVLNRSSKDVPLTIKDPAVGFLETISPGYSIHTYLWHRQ
measurementDescription: Thermal stability assay for GCase
Type: binding
conditionsUsed: pH 5.2, inhibitor 5 mM
reportedMetric: Tm
Phrase the answer as number then unit, nothing more needed.

Some compounds with recorded Tm:
Cl.OCCOCCN1C[C@H](O)[C@@H](O)[C@H](O)[C@@H](O)C1 [Compound 3]	57.2 ± 0.1 °C
Cl.OCCN1C[C@H](O)[C@@H](O)[C@H](O)[C@@H](O)C1 [Compound 2]	57.4 ± 0.1 °C
OC[C@H]1CNC[C@@H](O)[C@@H]1O [IFG, isofagomine, reference compound]	67.5 ± 0.3 °C

Exercise: Requested read-out: Tm. Entry: Cl.O[C@H]1[C@H](O)[C@@H](O)CNC[C@@H]1O [Compound 1]
Solution: 58.4 ± 0.1 °C

* * *

measuredTarget: GCase (Cerezyme) (Homo sapiens, UniProt P04062, R534H)
measurementDescription: Thermal stability assay for GCase
Type: binding
conditionsUsed: pH 7.2, inhibitor 10 mM
The following compounds are listed with their measured Tm values.
Phrase the answer as number then unit, nothing more needed.

Some compounds with recorded Tm:
Cl.O[C@H]1[C@H](O)[C@@H](O)CNC[C@@H]1O	54.6 ± 0.1 °C
Cl.OCCN1C[C@H](O)[C@@H](O)[C@H](O)[C@@H](O)C1	53.6 ± 0.1 °C
OC[C@H]1CNC[C@@H](O)[C@@H]1O [IFG, isofagomine, reference compound]	72.6 ± 0.2 °C

Shifting focus to the compound that follows.
Exercise: Requested read-out: Tm. Entry: Cl.OCCOCCN1C[C@H](O)[C@@H](O)[C@H](O)[C@@H](O)C1
Solution: 54.5 ± 0.0 °C

* * *

measuredTarget: GCase (Cerezyme) (Homo sapiens, UniProt P04062, R534H)
measurementDescription: Thermal stability assay for GCase
Assay type: binding
conditionsUsed: pH 7.2, read-out: ΔTm
reportedMetric: ΔTm at 1000 µM (°C)
Response body: numeric value in °C, unit text excluded.

Some molecules with recorded ΔTm at 1000 µM:
Cl.O[C@H]1[C@H](O)[C@@H](O)CNC[C@@H]1O [Compound 1]	2.3
OC[C@H]1CNC[C@@H](O)[C@@H]1O [IFG, isofagomine, reference compound]	18.4
Cl.OCCN1C[C@H](O)[C@@H](O)[C@H](O)[C@@H](O)C1 [Compound 2]	2.2

Exercise: Requested read-out: ΔTm at 1000 µM. Entry: Cl.OCCOCCN1C[C@H](O)[C@@H](O)[C@H](O)[C@@H](O)C1 [Compound 3]
Solution: 3.3

* * *

measuredTarget: GCase (Cerezyme) (Homo sapiens, UniProt P04062, R534H)
Sequence (P04062 40-536 R534H): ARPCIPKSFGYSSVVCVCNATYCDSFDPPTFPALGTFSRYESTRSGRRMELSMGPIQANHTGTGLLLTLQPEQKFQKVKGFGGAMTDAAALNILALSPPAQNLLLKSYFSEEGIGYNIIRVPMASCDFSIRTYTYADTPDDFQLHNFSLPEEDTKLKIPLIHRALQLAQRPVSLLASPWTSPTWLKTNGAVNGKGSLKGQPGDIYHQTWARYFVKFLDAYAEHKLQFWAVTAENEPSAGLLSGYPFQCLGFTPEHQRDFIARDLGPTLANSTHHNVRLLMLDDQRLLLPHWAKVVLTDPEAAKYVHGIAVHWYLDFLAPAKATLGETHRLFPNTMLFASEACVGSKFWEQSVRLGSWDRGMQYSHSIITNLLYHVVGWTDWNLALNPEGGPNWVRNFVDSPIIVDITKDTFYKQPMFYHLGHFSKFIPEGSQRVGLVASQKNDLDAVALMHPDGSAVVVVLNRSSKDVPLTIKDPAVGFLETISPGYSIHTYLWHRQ
measurementDescription: Thermal stability assay for GCase
Assay type: binding
conditionsUsed: pH 5.2, inhibitor 10 mM
The following molecules are listed with their measured Tm values.
Response body: numeric value in °C, unit text excluded.

Some molecules with recorded Tm:
Cl.OCCOCCN1C[C@H](O)[C@@H](O)[C@H](O)[C@@H](O)C1	56.9
Cl.O[C@H]1[C@H](O)[C@@H](O)CNC[C@@H]1O	59.0
OC[C@H]1CNC[C@@H](O)[C@@H]1O [IFG, isofagomine, reference compound]	63.7

Exercise: Provide value of Tm for this record tested with GCase (Cerezyme) (Homo sapiens, UniProt P04062, R534H): Cl.OCCN1C[C@H](O)[C@@H](O)[C@H](O)[C@@H](O)C1
Solution: 57.4

* * *

measuredTarget: GCase (Cerezyme) (Homo sapiens, UniProt P04062, R534H)
measurementDescription: Thermal stability assay for GCase
Format: binding
conditionsUsed: pH 5.2, inhibitor 0.5 mM
The following compounds are listed with their measured Tm values.
Response body: numeric value in °C, unit text excluded.

Cl.OCCN1C[C@H](O)[C@@H](O)[C@H](O)[C@@H](O)C1	55.9
Cl.OCCOCCN1C[C@H](O)[C@@H](O)[C@H](O)[C@@H](O)C1	56.1
Cl.O[C@H]1[C@H](O)[C@@H](O)CNC[C@@H]1O	56.4

Shifting focus to the compound that follows.
Exercise: Requested read-out: Tm. Entry: OC[C@H]1CNC[C@@H](O)[C@@H]1O [IFG, isofagomine, reference compound]
Solution: 68.0

* * *

The following compounds are listed with their measured Tm values.
measuredTarget: GCase (Cerezyme) (Homo sapiens, UniProt P04062, R534H)
measurementDescription: Thermal stability assay for GCase
Type: binding
conditionsUsed: pH 5.2, inhibitor 1 mM
Response body: numeric value in °C, unit text excluded.

Some compounds with recorded Tm:
Cl.OCCN1C[C@H](O)[C@@H](O)[C@H](O)[C@@H](O)C1	56.0
Cl.O[C@H]1[C@H](O)[C@@H](O)CNC[C@@H]1O	56.6
Cl.OCCOCCN1C[C@H](O)[C@@H](O)[C@H](O)[C@@H](O)C1	56.1

Shifting focus to the compound that follows.
Exercise: Provide value of Tm for this record tested with GCase (Cerezyme) (Homo sapiens, UniProt P04062, R534H): OC[C@H]1CNC[C@@H](O)[C@@H]1O [IFG, isofagomine, reference compound]
Solution: 68.9
